test_target: T1, DR4G142: Human HLA-DRA1*01:02/DRB1*03:01 ECD_VimentineL70A (human)
T1 construct: also called DRB1*03:01 VitL70A
protocol_summary: MSD ECL; antigen coated; protocol of Example 3;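 further: antibodies tested at 0.04–5 µg/ml on plate-coated soluble HLA-DR carrying peptide on the beta chain N-terminus, bound antibody detected by SulfoTag anti-human kappa secondary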
measured_endpoint: ECL signal
Include the unit right after the number.

[
  {
    "binder": "DR4B98 (antibody, human IgG2, kappa, V domains shown, also called VH DR4H50 / VL PH9L3) VH: QVQLVQSGAEVKKPGSSVKVSCKASGGTFKSYYIHWVRQAPGQGLEWMGGIAPIYGTAYYAQKFQGRVTITADESTSTAYMELSSLRSEDTAVYYCARDASWARAYGFDYWGQGTLVTVSS VL: EIVLTQSPATLSLSPGERATLSCRASQSVSSYLAWYQQKPGQAPRLLIYDASNRATGIPARFSGSGSGTDFTLTISSLEPEDFAVYYCQQRSNWPLTFGQGTKVEIKR",
    "ECL signal": "60500 ECL"
  },
  {
    "binder": "DR4B6 (antibody, V domains shown, also called L243 re-engineered as IgG2sigma) VH: QIQLVQSGPELKKPGETVKISCKASGFTFTNYGMNWVKQAPGKGLKWMGWINTYTREPTYADDFKGRFAFSLETSASTAYLQINNLKNEDTAKYFCARDITAVVPTGFDYWGQGTTLTVSS VL: DIQMTQSPASLSVSVGETVTITCRASENIYSNLAWYRQKQGKSPQLLVFAASNLADGVPSRFSGSGSGTQYSLKINSLQSEDFGDYYCQHFWTTPWAFGGGTNLEIK",
    "ECL signal": "399000 ECL"
  },
  {
    "binder": "DR4B127 (antibody, human IgG2, kappa, V domains shown, also called VH DR4H7 / VL PH9L3) VH: QVQLVQSGAEVKKPGSSVKVSCKASGGTFKSYYIHWVRQAPGQGLEWMGGIRPISGNAEYAQKFQGRVTITADESTSTAYMELSSLRSEDTAVYYCARDASYYRNYGFDYWGQGTLVTVSS VL: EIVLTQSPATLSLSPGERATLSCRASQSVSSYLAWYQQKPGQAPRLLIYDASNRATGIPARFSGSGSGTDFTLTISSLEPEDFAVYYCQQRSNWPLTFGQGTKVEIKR",
    "ECL signal": "748000 ECL"
  },
  {
    "binder": "DR4B4 (antibody, V domains shown, also called Lym-1 re-engineered as IgG2sigma) VH: QVQLKESGPGLVAPSQSLSITCTISGFSLTSYGVHWVRQPPGKGLEWLVVIWSDGSTTYNSALKSRLSISKDNSKSQVFLKMNSLQTDDTAIYYCASHYGSTLAFASWGHGTLVTVSA VL: DIQMTQSPASLSASVGETVTIICRASVNIYSYLAWYQQKQGKSPQLLVYNAKILAEGVPSRFSGSGSGTQFSLKINSLQPEDFGSYYCQHHYGPFTFGSGTKLEIK",
    "ECL signal": "862 ECL"
  }
]

[in] Give ECL signal for the following binder: DR4B5 (antibody, V domains shown, also called apolizumab (1D10) re-engineered as IgG2sigma) VH: QVQLQESGPGLVKPSETLSLTCTVSGFSLTNYGVHWVRQSPGKGLEWIGVKWSGGSTEYNAAFISRLTISKDTSKNQVSLKLNSLTAADTAVYYCARNDRYAMDYWGQGTLVTVSS VL: DIQMTQSPSSLSASVGDRVTITCRASENIYSYLAWYQQKPGKAPKLLVSNAKTLAEGVPSRFSGSGSGKQFTLTISSLQPEDFATYYCQHHYGNSYPFGQGTKLEIK
[out] 1330 ECL
